Would you kindly list inhibition for each of these compounds?
- experimental-target: Sodium-dependent serotonin transporter (Homo sapiens)
- details: Compound concentration 10 µM
- Description: PDSP Primary Binding target: SLC6A4 - Compounds are tested at 10 uM concentration, plate are incubated at room temperature in the dark for 90 minutes. Reaction are stopped by vacuum filtration onto 0.3% polyethyleneimine soaked filter mats using Filtermate harvester. Scintilation cocktail is then melted onto microwave-dried filters on a hot plate and the radio activity is counted in Microbia counter.
Give bare numbers, in %.

Your task in this section: give inhibition for each listed record.
1. c1cc(CN2CCCNCCNCCCNCC2)ccc1CN1CCCNCCNCCCNCC1
2. CN1CC(=O)N=C1NC(=O)Nc1cccc(Cl)c1

Completion:
[22.7, -8.91]

Your task in this section: give inhibition for each listed record.
1. CCc1ccc(OCc2ccccc2C(=O)Nc2ccc3nc(C)cc(N)c3c2)cc1
2. Cc1nc(-c2ccc(-c3ccc(C(=O)N4CCc5cc6c(cc54)C4(CCN(C)CC4)CO6)cc3)c(C)c2)no1
3. COc1ccc(S(=O)(=O)N2c3ccc(Cl)cc3[C@](O)(c3ccccc3Cl)[C@@H]2C(=O)N2CCC[C@H]2C(N)=O)cc1OC
4. CN[C@@H]1CCc2[nH]c3ccc(C(N)=O)cc3c2C1
5. C[C@H](CO)Nc1nc(SCc2cccc(Cl)c2F)nc2[nH]c(=O)sc12
6. N#Cc1ccc(NC(=O)Nc2ccccc2Br)c2nn[nH]c12

Completion:
[36, 41, 46.5, 7.67, 1.74, 26.5]

Your task in this section: give inhibition for each listed record.
1. Nc1nc(NCCc2ccc(O)cc2)nc2nc(-c3ccco3)nn12
2. OC1(c2ccc(Cl)cc2)CCN(Cc2c[nH]c3ccccc23)CC1
3. Clc1cccc(COc2cncc(N3CCNCC3)n2)c1

Completion:
1. -5.81
2. 102
3. 2.44

Your task in this section: give inhibition for each listed record.
1. O=C(O)C1CN(Cc2ccc(-c3nc4cc(Cc5ccccc5F)ccc4s3)c(F)c2)C1
2. CO[C@@H]1COCC[C@@H]1N[C@@H]1CC[C@@](C(=O)N2CCc3ncc(C(F)(F)F)cc3C2)(C(C)C)C1
3. O=C(O)c1cc(-c2ccc(C3CCNCC3)cc2)c2ccc(-c3ccc(C(F)(F)F)cc3)cc2c1
4. Cc1cccc([C@H](C)c2c[nH]cn2)c1C

Completion:
-1.28
-2.04
4.44
-4.26

----------
- experimental-target: 5-hydroxytryptamine receptor 2C (Homo sapiens)
- Sequence (whole entry): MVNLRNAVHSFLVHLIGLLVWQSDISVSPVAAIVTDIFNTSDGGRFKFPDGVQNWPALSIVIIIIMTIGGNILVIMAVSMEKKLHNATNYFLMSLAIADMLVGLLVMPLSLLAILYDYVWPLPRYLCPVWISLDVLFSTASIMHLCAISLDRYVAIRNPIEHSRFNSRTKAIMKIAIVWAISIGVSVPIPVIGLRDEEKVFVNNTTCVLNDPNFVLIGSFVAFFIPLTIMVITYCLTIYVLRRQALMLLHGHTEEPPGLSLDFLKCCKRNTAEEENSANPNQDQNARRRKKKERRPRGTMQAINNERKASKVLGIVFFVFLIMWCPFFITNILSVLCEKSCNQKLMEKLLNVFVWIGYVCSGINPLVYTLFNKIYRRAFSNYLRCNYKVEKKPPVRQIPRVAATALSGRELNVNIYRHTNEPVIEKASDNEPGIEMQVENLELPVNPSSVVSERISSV
- details: Compound concentration 10 µM; call rule not given here
Select the correct class. Options are active, inactive and nothing else.

{"compound": "O=C(c1cc2c(cc1F)OC(c1ccc(F)cc1)(c1ccc(Cl)cc1Cl)O2)N1CCOCC1 (stereo not given)", "assigned-category": "active"}
{"compound": "CC(C)NCC(O)COc1cccc2ccccc12 (stereo not given)", "assigned-category": "active"}
{"compound": "COC(=O)[C@H]1[C@H]2C[C@H]3c4[nH]c5ccccc5c4CCN3C[C@H]2CC[C@@H]1O", "assigned-category": "inactive"}
{"compound": "N#Cc1c(O)nc(SCc2cccc(F)c2F)nc1C1CC1", "assigned-category": "inactive"}

Prompt: Would you mind telling me which call this test gave O=C(O)COc1cccc(CN(Cc2ccc(-n3cccn3)cc2)S(=O)(=O)c2cccnc2)c1 ?
Completion: inactive
